run.description: Half life in human patient with advanced solid tumors at 0.5 to 12 mg/m2/hr, iv administered by continuous intravenous infusion over 5 days every 4 weeks
Format: ADME, organism-based
conditions: in vivo, dose 0.5-12 mg/m2/hr, time 5 day
endpoint.label: half-life (h)

[
  {
    "structure.smiles.string": "Cc1cc(Nc2cc(N3CCN(C)CC3)nc(Sc3ccc(NC(=O)C4CC4)cc3)n2)[nH]n1",
    "numeric.result": 15
  }
]

====

measurement.target: Aurora kinase C (Homo sapiens)
Sequence (Q9UQB9 whole entry): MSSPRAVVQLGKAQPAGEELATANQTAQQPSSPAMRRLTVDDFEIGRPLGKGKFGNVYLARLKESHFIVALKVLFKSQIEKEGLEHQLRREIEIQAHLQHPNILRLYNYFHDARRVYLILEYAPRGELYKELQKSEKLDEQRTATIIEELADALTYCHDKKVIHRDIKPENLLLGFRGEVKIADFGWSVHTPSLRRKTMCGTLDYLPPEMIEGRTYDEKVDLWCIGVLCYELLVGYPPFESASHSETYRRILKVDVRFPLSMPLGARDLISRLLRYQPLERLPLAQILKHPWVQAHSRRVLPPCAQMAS
endpoint.label: Ki (nM)

[
  {
    "compound": "CCN(CCCOc1ccc2c(Nc3cc(CC(=O)Nc4cccc(F)c4)n[nH]3)ncnc2c1)CCOP(=O)(O)O [BARASERTIB]",
    "numeric.result": 17
  }
]

====

run.description: Cmax in plasma of human patient with advanced solid tumors at 0.5 to 12 mg/m2/hr, iv administered by continuous intravenous infusion over 5 days every 4 weeks
Assay type: ADME, organism-based
conditions: dose 0.5-12 mg/m2/hr, time 5 day

[
  {
    "structure.smiles.string": "Cc1cc(Nc2cc(N3CCN(C)CC3)nc(Sc3ccc(NC(=O)C4CC4)cc3)n2)[nH]n1",
    "Cmax [nM]": 650
  }
]

The measured values listed here are drawn from ChEMBL document CHEMBL5715939.
